- Tgt: CXCR4 receptor (human, UniProt P61073 1-352)
- Sequence (P61073 whole entry): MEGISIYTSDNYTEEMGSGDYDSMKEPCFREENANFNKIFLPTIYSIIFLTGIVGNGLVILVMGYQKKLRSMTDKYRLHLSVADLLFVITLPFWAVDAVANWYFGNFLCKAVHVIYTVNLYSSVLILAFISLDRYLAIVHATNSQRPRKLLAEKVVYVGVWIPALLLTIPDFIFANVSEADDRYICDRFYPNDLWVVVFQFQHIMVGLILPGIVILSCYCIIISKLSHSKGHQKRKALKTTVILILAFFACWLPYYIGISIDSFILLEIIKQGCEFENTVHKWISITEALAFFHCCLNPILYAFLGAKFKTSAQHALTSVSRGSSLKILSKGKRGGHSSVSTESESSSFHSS
- Procedure Text: cell-based or functional assay
Ends that are not written are not given here. * marks the point of attachment. Palmitoyl = CCCCCCCCCCCCCCCC(=O)*
Outcome Measure: AUC (% of), CHTX, CEM, 1.0 uM

{"Binder": "Palmitoyl-KKLRSMTDKYRLHLSV-NH2 (SMILES CCCCCCCCCCCCCCCC(=O)N[C@@H](CCCCN)C(=O)N[C@@H](CCCCN)C(=O)N[C@@H](CC(C)C)C(=O)N[C@@H](CCCNC(=N)N)C(=O)N[C@@H](CO)C(=O)N[C@@H](CCSC)C(=O)N[C@H](C(=O)N[C@@H](CC(=O)O)C(=O)N[C@@H](CCCCN)C(=O)N[C@@H](Cc1ccc(O)cc1)C(=O)N[C@@H](CCCNC(=N)N)C(=O)N[C@@H](CC(C)C)C(=O)N[C@@H](Cc1c[nH]cn1)C(=O)N[C@@H](CC(C)C)C(=O)N[C@@H](CO)C(=O)N[C@H](C(N)=O)C(C)C)[C@@H](C)O) [CXCR4 i1 loop compound 41]", "Outcome Measure": "AUC (% of), CHTX, CEM, 1.0 uM", "Endpoint Result": "66.7%"}
{"Binder": "Palmitoyl-VMGYQKKLRSMTD-NH2 (SMILES CCCCCCCCCCCCCCCC(=O)N[C@H](C(=O)N[C@@H](CCSC)C(=O)NCC(=O)N[C@@H](Cc1ccc(O)cc1)C(=O)N[C@@H](CCC(N)=O)C(=O)N[C@@H](CCCCN)C(=O)N[C@@H](CCCCN)C(=O)N[C@@H](CC(C)C)C(=O)N[C@@H](CCCNC(=N)N)C(=O)N[C@@H](CO)C(=O)N[C@@H](CCSC)C(=O)N[C@H](C(=O)N[C@@H](CC(=O)O)C(N)=O)[C@@H](C)O)C(C)C) [CXCR4 i1 loop compound 35]", "Outcome Measure": "AUC (% of), CHTX, CEM, 1.0 uM", "Endpoint Result": "57.9%"}
{"Binder": "MGYQKKLRSMTDKYRI-NH2 (not fully specified (N-terminus); also: further groups not given here) [CXCR4 i1 loop compound 48]", "Outcome Measure": "AUC (% of), CHTX, CEM, 1.0 uM", "Endpoint Result": "53%"}
